Hey, just so you know, these numbers are from ChEMBL document CHEMBL1124973.

- target under test: Muscarinic acetylcholine receptor (Rattus norvegicus) (UniProt P08482+P08483+P08485+P08911+P10980)
Note to self: values exactly at 4 µM are fulfilled. So K app at or above 4 µM is fulfilled, below is not fulfilled.

Cc1noc(C2CC3CCC2N(C)C3)n1 (stereo in doubt; 23a): fulfilled
C[N+](C)(C)CCOC(N)=O: fulfilled
Nc1noc(C2=CCCNC2)n1: not fulfilled
Cc1noc(C2CN3CCN2CC3)n1 (stereo not drawn): fulfilled
Nc1noc(C2CN3CCCC2C3)n1 (stereo in doubt; 17b): not fulfilled
Nc1noc(C2CN3CCC2C3)n1 (stereo in doubt; 16a): not fulfilled
Cc1noc(C2CCCCN(C)C2)n1 (stereo not drawn): fulfilled
Cc1noc(C2CN3CCC2C3)n1 (stereo in doubt; 15b): not fulfilled
Nc1noc(C2CNCCN2)n1 (stereo not drawn): fulfilled
Nc1noc(C2CN3CCCC2C3)n1 (stereo in doubt; 17a): not fulfilled
Cc1noc(C2CC3CCC2NC3)n1 (stereo in doubt; 22b): fulfilled
Cc1noc(C2CC3CCC2NC3)n1 (stereo in doubt; 22a): not fulfilled
Cc1noc(C2CN3CCC2C3)n1 (stereo in doubt; 15a): not fulfilled
CN1CCNC(c2nc(N)no2)C1 (stereo not drawn): fulfilled
Nc1noc(C2CN3CCC2C3)n1 (stereo in doubt; 16b): not fulfilled
Cc1noc(CN(C)C)n1: fulfilled
Nc1noc(C2CN3CCC2CC3)n1 (stereo not drawn): not fulfilled
CN1CCC=C(c2nc(N)no2)C1: not fulfilled
Cc1noc(C[N+](C)(C)C)n1: not fulfilled
Cc1noc(C2=CCCN(C)C2)n1: not fulfilled
Cc1noc(C2CCN(C)C2)n1 (stereo not drawn): fulfilled
Cc1noc(C2CN(C)CCN2)n1 (stereo not drawn): fulfilled
CN1CCCC(c2nc(N)no2)C1 (stereo not drawn): fulfilled
Cc1noc(C2CC3CCC2N(C)C3)n1 (stereo in doubt; 23b): fulfilled
Cc1noc(C2CN3CCC2CC3)n1 (stereo not drawn): not fulfilled
Cc1noc(C2=CCCNC2)n1: not fulfilled
Cc1noc(C2CCCN(C)C2)n1 (stereo not drawn): fulfilled
Nc1noc(C2CCNC2)n1 (stereo not drawn): fulfilled

----------
- target under test: Muscarinic acetylcholine receptor (Rattus norvegicus) (UniProt P08482+P08483+P08485+P08911+P10980)
Listed compounds paired with reported K app
measure name: K app

Nc1noc(C2CN3CCC2C3)n1 (stereo in doubt; 16a): < 4.3e-05 µM
Cc1noc(C2CNCCN2)n1 (stereo not drawn): 0.64 µM
Cc1noc(C2CN3CCC2C3)n1 (stereo in doubt; 15b): 0.0021 µM

----------
Listed molecules paired with reported K app
- target under test: Muscarinic acetylcholine receptor (Rattus norvegicus) (UniProt P08482+P08483+P08485+P08911+P10980)
measure name: K app

CN1CCN(C)C(c2nc(N)no2)C1 (centres undefined): > 50 µM
Nc1noc(C2CN3CCN2CC3)n1 (centres undefined): > 50 µM
CN1CCC(c2nc(N)no2)C1 (centres undefined): 17 µM
Cc1noc(C2CNCCN2)n1 (centres undefined): > 50 µM
